// provenance: ChEMBL document CHEMBL1961873

Biological target: 5'-AMP-activated protein kinase catalytic subunit alpha-2 (Homo sapiens);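 note: mean inhibition measured on the AMPK complex of alpha2, beta1 and gamma1 subunits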
Details: at 0.1 µM
Description: GSK_PKIS: AMPKA2 (A2B1G1) mean inhibition at 0.1 uM [Nanosyn]
compounds and their reported inhibition
Give a bare numeral; the unit % is implied.

Consider the worked cases shown below.
CCCN1CCC(c2ccc(Nc3nc(Nc4cc(F)ccc4C(N)=O)c4cc[nH]c4n3)c(OC)c2)CC1: 3.42
Cc1ccc(O)cc1Nc1ccnc2cc(-c3ccccn3)ccc12: 1.74

Let's switch to this compound now.
Task item: Using 5'-AMP-activated protein kinase catalytic subunit alpha-2 (Homo sapiens) as the test system, report measured inhibition of "NS(=O)(=O)c1ccc(N/N=C2\C(=O)Nc3ccc4ncccc4c32)cc1" .
Reply: 28.9

* * *

Target: Proto-oncogene tyrosine-protein kinase Src (Homo sapiens)
Details: at 1 µM
OBSERVED_PROPERTY: inhibition
// return the numeric value with its unit appended

[O-][S+]1CCN(Cc2ccc(-c3ccc4ncnc(Nc5ccc(OCc6cccc(F)c6)c(Cl)c5)c4c3)o2)CC1: 10.2%
CCc1nn2ncccc2c1-c1ccnc(NC2CC2)n1: 7.08%
CNC(=O)c1cncc(/C=C/c2ccccc2Cl)c1: 7.14%

Task item: Report measured inhibition; entry is "COc1cc2ncn(-c3cc(OCc4ccccc4C(F)(F)F)c(C(=O)N(C)C)s3)c2cc1OC"
Reply: 3.6%

* * *

Biological target: Proto-oncogene tyrosine-protein kinase Src (Homo sapiens) (UniProt P12931);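 note: each value is an averaged percent inhibition of SRC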
Sequence (P12931 2-536 limits assumed): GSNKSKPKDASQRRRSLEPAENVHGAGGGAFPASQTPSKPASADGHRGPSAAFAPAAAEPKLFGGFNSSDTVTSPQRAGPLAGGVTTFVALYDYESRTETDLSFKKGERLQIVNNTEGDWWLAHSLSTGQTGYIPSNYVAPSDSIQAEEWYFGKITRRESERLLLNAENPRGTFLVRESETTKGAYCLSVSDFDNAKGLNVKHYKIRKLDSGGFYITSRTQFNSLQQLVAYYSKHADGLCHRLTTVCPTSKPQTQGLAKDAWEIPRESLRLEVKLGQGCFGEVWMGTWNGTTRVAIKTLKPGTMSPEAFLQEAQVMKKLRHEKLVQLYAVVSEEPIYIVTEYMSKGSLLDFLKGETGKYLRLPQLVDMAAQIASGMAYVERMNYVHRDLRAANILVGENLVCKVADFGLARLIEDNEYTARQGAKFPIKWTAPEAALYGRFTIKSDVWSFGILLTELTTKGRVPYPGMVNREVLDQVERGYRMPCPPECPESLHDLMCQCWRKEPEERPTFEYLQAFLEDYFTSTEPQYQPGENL
Details: at 1 µM
OBSERVED_PROPERTY: inhibition (%)
Reply numerically in %, unit not repeated.

Worked set:
O=C(Nc1n[nH]c2cc(-c3ccc(F)cc3)ccc12)C1CC1: 6.35
CCCN(CCS(C)(=O)=O)Cc1ccc(-c2ccc3ncnc(Nc4ccc(OCc5cccc(F)c5)c(Cl)c4)c3c2)o1: 6.22
CC(=O)NCc1cccc(C#Cc2cncnc2Nc2ccc(OCc3cccc(F)c3)c(Cl)c2)c1: 2.01
NS(=O)(=O)c1ccc(Nc2ncc(-c3ccccc3)o2)cc1: 18.3
NS(=O)(=O)c1ccc(N/N=C2\C(=O)Nc3ccc4ncccc4c32)cc1: 71.1

Task item: Assign inhibition to the following record: "CCn1cc(-c2ccnc3[nH]ccc23)c(-c2cccc(NC(=O)Nc3ccc(OCc4ccccc4)cc3)c2)n1"
Reply: 6.43

Task item: Name the recorded inhibition of the item "Cc1cccc(Nc2ncc(-c3ccccc3)o2)c1" in your answer.
Reply: 19.3

Task item: Supply recorded inhibition for "CCn1c(-c2nonc2N)nc2c(C#CC(C)(C)O)nc(OC[C@H](N)c3ccccc3)cc21" here.
Reply: 13.7

Task item: Find the measured inhibition of "Fc1cccc(COc2ccc(Nc3ncnc4sc(-c5ccco5)cc34)cc2Cl)c1" and report it.
Reply: 6.58

* * *

Overview of reported inhibition across a group of molecules:
Molecular target: Testis-specific serine/threonine-protein kinase 2 (Homo sapiens) (UniProt Q96PF2);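 note: each value is the mean percent inhibition of TSSK2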
Sequence (whole entry): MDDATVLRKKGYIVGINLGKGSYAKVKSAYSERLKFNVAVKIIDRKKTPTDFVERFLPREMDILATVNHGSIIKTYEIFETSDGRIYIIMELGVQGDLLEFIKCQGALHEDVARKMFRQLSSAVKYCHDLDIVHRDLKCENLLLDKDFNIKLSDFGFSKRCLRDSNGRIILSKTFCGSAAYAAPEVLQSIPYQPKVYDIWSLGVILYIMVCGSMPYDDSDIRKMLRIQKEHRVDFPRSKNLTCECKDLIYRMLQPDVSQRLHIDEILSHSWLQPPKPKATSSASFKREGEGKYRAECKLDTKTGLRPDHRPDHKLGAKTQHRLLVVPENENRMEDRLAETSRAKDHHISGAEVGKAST
Details: at 1 µM
Use % as the unit, but write only the number.

Task item: Tell me inhibition reported for "NC(=O)c1sc(-n2cnc3ccc(C(F)(F)F)cc32)cc1OCc1ccccc1Br"
Reply: 2.38

Task item: Retrieve inhibition measured for "CNC(=O)c1cc(-c2ccc(F)cc2)cc(-c2ccc(S(=O)(=O)N3CCCC3)cc2)c1N" and print it.
Reply: 1.66

Task item: Provide only the value of recorded inhibition for CC1=C(C(=O)Nc2cc(Cl)c3[nH]ncc3c2)C(c2ccc(C(F)(F)F)cc2)CC(=O)N1 (stereo not drawn)
Reply: 1.37

Task item: Report inhibition, nothing else, for this molecule: "COc1ccc(-c2cc(-c3c[nH]nc3-c3ccccn3)ccn2)cc1"
Reply: 3.88

Task item: Please look at this molecule and report its inhibition: "COC(=O)Nc1nc2ccc(Oc3ccc(NC(=O)Nc4cccc(Cl)c4)cc3)cc2[nH]1"
Reply: -0.21

* * *

Molecular target: Discoidin domain-containing receptor 2 (Homo sapiens);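 note: reported values are mean percent inhibition of DDR2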
Sequence (whole entry): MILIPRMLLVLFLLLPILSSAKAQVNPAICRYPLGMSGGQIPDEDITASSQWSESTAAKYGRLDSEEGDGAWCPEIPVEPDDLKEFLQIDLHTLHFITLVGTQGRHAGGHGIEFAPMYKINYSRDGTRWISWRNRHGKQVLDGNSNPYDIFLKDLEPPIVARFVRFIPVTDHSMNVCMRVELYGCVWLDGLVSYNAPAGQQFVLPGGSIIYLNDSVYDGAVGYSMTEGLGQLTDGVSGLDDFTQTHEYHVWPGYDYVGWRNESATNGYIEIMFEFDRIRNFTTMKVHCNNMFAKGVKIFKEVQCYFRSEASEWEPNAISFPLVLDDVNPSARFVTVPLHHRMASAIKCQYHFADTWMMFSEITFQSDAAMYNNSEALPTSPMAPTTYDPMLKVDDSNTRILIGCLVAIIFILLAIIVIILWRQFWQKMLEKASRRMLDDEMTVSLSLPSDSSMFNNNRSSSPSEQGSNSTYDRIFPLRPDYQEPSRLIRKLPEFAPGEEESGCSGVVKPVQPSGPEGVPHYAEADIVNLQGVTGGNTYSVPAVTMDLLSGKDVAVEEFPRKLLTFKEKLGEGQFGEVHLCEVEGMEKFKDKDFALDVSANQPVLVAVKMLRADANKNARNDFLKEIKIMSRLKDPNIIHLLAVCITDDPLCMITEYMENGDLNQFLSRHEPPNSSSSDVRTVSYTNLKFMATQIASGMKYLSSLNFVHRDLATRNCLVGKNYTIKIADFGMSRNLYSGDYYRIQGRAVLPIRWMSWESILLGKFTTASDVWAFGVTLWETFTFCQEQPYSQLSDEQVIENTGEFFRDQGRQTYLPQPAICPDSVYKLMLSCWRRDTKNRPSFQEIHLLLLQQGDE
Conditions: at 0.1 µM
Property: inhibition; scope: individual compounds
Field format: number, assumed %, no unit text.

Task item: Look up and report measured inhibition (Discoidin domain-containing receptor 2 (Homo sapiens)) for the following compound: "Clc1ccc(-c2nn3ncccc3c2-c2ccnc(Nc3ccccc3)n2)cc1"
Reply: 3

* * *

Biological target: Tyrosine-protein kinase Fer (Homo sapiens) (UniProt P16591)
Sequence (P16591 whole entry, looked up): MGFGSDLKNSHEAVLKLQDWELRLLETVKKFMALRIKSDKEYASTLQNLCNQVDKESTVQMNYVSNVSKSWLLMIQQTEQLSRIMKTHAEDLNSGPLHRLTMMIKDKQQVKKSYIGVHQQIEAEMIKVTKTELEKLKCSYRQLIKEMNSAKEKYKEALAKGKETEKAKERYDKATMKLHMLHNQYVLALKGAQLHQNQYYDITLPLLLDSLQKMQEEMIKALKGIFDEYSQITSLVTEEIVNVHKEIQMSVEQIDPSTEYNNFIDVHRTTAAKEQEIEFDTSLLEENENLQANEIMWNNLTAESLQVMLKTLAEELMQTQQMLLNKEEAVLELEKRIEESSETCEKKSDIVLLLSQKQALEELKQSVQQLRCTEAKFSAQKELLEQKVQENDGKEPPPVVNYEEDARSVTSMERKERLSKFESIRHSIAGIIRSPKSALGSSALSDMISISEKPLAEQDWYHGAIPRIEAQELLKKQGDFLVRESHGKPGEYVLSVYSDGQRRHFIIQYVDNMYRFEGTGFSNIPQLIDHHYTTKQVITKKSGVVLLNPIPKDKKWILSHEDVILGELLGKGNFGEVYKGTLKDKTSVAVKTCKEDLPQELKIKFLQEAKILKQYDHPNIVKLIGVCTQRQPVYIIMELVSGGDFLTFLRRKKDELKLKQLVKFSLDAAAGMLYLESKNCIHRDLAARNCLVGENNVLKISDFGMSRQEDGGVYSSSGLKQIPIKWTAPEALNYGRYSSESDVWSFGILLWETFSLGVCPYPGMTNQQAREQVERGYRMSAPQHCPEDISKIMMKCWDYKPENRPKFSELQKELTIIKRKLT
Conditions: at 1 µM
Description: GSK_PKIS: FER mean inhibition at 1 uM [Nanosyn]
Values of inhibition greater than or equal to 0.9% map to label 1; values below map to label 0.

Task item: Hi team, for "c1ccc(COc2ccc(Nc3ncnc4ccc(-c5ccco5)cc34)cc2)cc1" , is the recorded inhibition at or above 0.9%?
Reply: label 1

Task item: Check if inhibition >= 0.9% (inclusive). Item: "CN(C)CCOc1ccc(-c2nc(-c3ccncc3)c(-c3ccc4c(c3)CC/C4=N\O)[nH]2)cc1"
Reply: label 1

Task item: Dear colleague, could you confirm whether "CC(=O)NCc1cccc(C#Cc2cncnc2Nc2ccc(OCc3cccc(F)c3)c(Cl)c2)c1" has inhibition at or above 0.9%?
Reply: label 0

Task item: Does "N#Cc1c(NC(=O)c2ccc(F)cc2)sc2c1CCCC2" have a reported inhibition of at least 0.9%?
Reply: label 1

Task item: Threshold query (inhibition >= 0.9%) on "COc1cc(Nc2nccc(Nc3ccc4c(C)n[nH]c4c3)n2)cc(OC)c1OC"
Reply: label 1

Task item: Item "CNC(=O)c1cccc(C#Cc2cncnc2Nc2ccc(OCc3cccc(F)c3)c(Cl)c2)c1" with inhibition of 0.9% or above?
Reply: label 1

* * *

Recorded inhibition for the following compounds
Tested on: Epidermal growth factor receptor (Homo sapiens), P00533 [L858R]
Sequence (P00533 whole entry L858R): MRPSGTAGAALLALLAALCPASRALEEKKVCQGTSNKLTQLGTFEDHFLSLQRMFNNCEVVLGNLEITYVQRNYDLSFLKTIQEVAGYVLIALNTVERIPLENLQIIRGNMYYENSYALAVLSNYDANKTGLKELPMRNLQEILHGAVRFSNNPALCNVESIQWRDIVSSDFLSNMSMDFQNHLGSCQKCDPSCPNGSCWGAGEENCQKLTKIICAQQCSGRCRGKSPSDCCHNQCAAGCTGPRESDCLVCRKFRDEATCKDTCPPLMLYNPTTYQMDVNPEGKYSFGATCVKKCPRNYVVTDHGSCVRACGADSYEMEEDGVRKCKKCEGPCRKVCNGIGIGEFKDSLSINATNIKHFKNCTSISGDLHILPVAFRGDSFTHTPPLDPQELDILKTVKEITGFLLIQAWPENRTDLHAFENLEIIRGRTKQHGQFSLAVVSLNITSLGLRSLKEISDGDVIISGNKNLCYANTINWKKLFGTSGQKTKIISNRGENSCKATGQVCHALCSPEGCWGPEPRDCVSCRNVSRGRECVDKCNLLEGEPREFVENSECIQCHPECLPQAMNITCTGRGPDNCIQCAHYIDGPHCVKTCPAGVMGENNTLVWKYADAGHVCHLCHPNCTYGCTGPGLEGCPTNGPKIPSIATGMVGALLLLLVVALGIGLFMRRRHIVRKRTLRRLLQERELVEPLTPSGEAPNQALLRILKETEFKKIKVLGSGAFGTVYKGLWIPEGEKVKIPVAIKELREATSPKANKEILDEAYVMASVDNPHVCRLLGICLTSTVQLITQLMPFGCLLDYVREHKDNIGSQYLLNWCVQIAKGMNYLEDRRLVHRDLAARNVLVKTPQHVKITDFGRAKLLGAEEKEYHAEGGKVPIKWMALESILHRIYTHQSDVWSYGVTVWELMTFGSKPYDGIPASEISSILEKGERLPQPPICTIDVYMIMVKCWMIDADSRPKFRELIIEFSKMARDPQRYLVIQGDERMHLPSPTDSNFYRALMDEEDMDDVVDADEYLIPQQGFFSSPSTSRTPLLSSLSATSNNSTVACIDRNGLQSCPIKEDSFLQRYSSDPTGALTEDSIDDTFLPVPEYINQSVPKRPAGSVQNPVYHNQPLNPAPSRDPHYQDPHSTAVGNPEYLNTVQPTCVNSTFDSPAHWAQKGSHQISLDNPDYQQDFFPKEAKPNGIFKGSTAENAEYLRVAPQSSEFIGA
Details: at 1 µM
Could you give me the number in %? Just the number is fine.

Task item: Indicate its recorded inhibition; the compound in question is "CC(C)COC(=O)c1ccc2c(c1)/C(=C/Nc1ccc(S(N)(=O)=O)cc1)C(=O)N2"
Reply: 0.49

Task item: Provide only the value of recorded inhibition for "COc1cc(N2CCN(C(C)C)CC2)ccc1Nc1nc(Nc2ccc(F)cc2C(N)=O)c2cc[nH]c2n1"
Reply: 39.2

Task item: Give the reported value of inhibition for this record: "CCn1c(-c2nonc2N)nc2c(C#CC(C)(C)O)nc(OC[C@H](N)c3ccccc3)cc21"
Reply: 1.86

Task item: Tell me inhibition reported for "COc1ccc(-c2cc3c(N)ncnc3o2)cc1"
Reply: -0.02

Task item: Note inhibition for the compound shown: "COc1cc2c(cc1Nc1nc(Nc3ccsc3C(N)=O)c3cc[nH]c3n1)N(C(=O)CN(C)C)CCC2(C)C"
Reply: 33.1

* * *

Target: Ribosomal protein S6 kinase alpha-1 (Homo sapiens);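 note: mean inhibition of RSK1, reported in the GSK PKIS screen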
Settings: at 1 µM
OBSERVED_PROPERTY: inhibition
Please make sure the unit comes right after the number.

O=C(Nc1n[nH]c2cc(-c3ccc(F)cc3)ccc12)C1CC1: 9.5%

Task item: Supply inhibition value. Item: "COc1ccc2c(-c3ccnc(Nc4cccc(OC(F)(F)F)c4)n3)cnn2n1"
Reply: 3.67%

Task item: Determine from records and report inhibition for "CC(C)(CO)CNC(=O)c1ccc2c(c1)/C(=N/Nc1ccc(S(N)(=O)=O)cc1)C(=O)N2"
Reply: 3.49%

Task item: // Input: "Nc1ncc(-c2cccc(S(N)(=O)=O)c2)c2scc(-c3ccc(F)c(Cl)c3)c12" . Output its inhibition only.
Reply: 6.15%
